Target: B-cell CLL/lymphoma 9 protein (Homo sapiens)
Sequence (O00512 whole entry): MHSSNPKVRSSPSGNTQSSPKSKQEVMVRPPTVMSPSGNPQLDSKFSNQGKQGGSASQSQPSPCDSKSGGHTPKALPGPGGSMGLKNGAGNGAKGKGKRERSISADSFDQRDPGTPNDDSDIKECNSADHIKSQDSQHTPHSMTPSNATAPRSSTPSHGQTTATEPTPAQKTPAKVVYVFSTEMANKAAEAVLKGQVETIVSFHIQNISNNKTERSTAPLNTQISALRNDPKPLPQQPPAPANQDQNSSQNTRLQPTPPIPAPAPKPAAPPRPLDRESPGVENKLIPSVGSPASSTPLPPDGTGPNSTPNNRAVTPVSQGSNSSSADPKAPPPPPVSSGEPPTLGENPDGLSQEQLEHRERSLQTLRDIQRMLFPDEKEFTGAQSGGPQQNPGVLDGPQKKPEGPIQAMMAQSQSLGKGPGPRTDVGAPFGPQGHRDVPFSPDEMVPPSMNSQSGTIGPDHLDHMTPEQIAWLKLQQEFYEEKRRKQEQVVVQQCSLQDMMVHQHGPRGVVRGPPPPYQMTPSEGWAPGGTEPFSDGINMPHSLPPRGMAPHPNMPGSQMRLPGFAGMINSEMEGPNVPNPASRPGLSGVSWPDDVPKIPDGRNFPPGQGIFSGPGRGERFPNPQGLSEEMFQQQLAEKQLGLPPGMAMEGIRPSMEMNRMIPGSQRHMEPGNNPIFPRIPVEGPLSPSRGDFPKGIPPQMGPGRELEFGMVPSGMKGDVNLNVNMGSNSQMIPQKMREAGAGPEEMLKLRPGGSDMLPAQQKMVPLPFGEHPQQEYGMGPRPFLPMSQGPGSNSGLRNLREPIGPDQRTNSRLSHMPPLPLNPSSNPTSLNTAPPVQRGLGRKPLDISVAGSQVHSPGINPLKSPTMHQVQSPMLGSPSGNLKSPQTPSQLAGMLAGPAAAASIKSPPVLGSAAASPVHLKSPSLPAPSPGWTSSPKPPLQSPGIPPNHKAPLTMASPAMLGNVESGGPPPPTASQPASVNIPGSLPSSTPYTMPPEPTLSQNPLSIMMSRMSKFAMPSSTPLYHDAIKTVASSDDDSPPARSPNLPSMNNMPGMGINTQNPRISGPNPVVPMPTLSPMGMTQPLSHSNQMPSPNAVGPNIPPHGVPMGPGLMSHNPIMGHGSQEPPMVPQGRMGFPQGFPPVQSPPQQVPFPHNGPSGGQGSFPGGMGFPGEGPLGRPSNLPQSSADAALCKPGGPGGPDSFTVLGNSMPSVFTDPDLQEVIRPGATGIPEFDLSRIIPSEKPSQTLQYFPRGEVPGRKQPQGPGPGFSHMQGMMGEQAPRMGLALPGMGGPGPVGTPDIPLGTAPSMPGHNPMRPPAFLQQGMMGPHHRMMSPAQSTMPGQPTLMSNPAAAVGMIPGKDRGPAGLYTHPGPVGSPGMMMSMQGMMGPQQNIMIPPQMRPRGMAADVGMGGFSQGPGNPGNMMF
Observed Property: pKd
Answers are plain numbers, as −log10 of the molar value.

Form field pKd, entry CC(C)(Oc1cccc(N2CCC[C@@H](C(=O)N(CCOCCOCCNC(=O)CCCC[C@@H]3SC[C@@H]4NC(=O)N[C@@H]43)Cc3ccc(-c4cn[nH]c4)cc3)C2)c1)C(=O)N1CCNCC1 : 6.11
